Reference source for all entries: patent US8389679B2

- Test system: target microorganisms
- protocolSummary: Screen of synthesized peptides for binding to target microorganisms (targeting peptides, Tables 2 and 3)
- assayContext: microorganism(s) the targeting peptide was identified as binding to (Table 3)
measureName: Target(s)

Past entries and their recorded results:
• 1T-79 (FGTPWSITNFWKKNFNDRPDFDSDRRRY; synthetic novel tartgeting peptide IT-79) = S. pneumoniae
• 1T-81 (AIATGLDIVDGKFDGYLWA; synthetic novel tartgeting peptide IT-81) = S. pneumoniae
• 1T-6 (KFINGVLSQFVLERK; synthetic novel tartgeting peptide IT-6) = S. mutans
• 1T-104 (RAVAAHLQGRHHGHQVRRQRHGQR; synthetic novel tartgeting peptide IT-104) = S. mitis
• 1T-122 (GAIPDPVTHRVDWEEDHQTRPSR; synthetic novel tartgeting peptide IT-122) = S. mitis
• 1T-53 (SDILAEMFEKGELQTLVKDAAAKANA; synthetic novel tartgeting peptide IT-53) = P. aeruginosa

Prompt: Give its Target(s) value. Item: 1T-17 (NNAIVYIS; synthetic novel tartgeting peptide IT-17)
Completion: S. mutans

Prompt: Give its Target(s) value. Item: 1T-76 (EMRLSKFFRDFILWRKK; synthetic novel tartgeting peptide IT-76)
Completion: S. pneumoniae

Prompt: Give its Target(s) value. Item: 1T-71 (KIDTNQWPPNKEG; synthetic novel tartgeting peptide IT-71)
Completion: P. aeruginosa

Prompt: Give its Target(s) value. Item: 1T-80 (GGNLGPGFGVIIP; synthetic novel tartgeting peptide IT-80)
Completion: S. pneumoniae

Prompt: Give its Target(s) value. Item: 1T-32 (VSFLAGWLCLGLAAWRLGNA; synthetic novel tartgeting peptide IT-32)
Completion: S. mutans

Prompt: Give its Target(s) value. Item: 1T-77 (EMRISRIILDFLFLRKK; synthetic novel tartgeting peptide IT-77)
Completion: S. pneumoniae
